- experimental system: 5-hydroxytryptamine receptor 2B (Homo sapiens, UniProt P41595)
- Sequence (P41595 whole entry): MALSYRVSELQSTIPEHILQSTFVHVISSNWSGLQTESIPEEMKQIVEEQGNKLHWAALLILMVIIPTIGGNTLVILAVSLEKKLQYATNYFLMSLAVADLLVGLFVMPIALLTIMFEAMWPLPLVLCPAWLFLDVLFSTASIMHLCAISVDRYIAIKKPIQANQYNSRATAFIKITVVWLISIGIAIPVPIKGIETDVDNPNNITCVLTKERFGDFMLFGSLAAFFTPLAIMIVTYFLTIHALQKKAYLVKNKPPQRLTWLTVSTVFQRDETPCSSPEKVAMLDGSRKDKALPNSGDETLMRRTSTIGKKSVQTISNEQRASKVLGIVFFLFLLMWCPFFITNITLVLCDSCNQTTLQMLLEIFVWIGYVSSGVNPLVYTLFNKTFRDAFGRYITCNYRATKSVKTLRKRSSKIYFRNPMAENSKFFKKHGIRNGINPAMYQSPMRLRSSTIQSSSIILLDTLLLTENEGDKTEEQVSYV
- procedure text: Antagonist activity at human 5-HT2B receptor transfected in CHO cell assessed as decrease in 5-HT-induced IP1 production preincubated for 5 mins before 5-HT addition measured after 30 mins by HTRF detection method
reported metric: pIC50
The scale used: pIC50 is minus the common logarithm of the concentration in molar units.

{"columns": ["chem smiles", "pIC50"],
 "data": [
  ["CN(C)CCCNC(=O)[C@@H]1C[C@@H]2c3cccc4c3c(cn4C)C[C@H]2N(C)C1", 7.43],
  ["COC(OC)[C@@H]1C[C@@H]2c3cccc4c3c(cn4C)C[C@H]2N(C)C1", 7.89]
]}

Consider now this further compound.
Could you share what pIC50 was measured for `CCNC(=O)N(CCCN(C)C)C(=O)[C@@H]1C[C@@H]2c3cccc4c3c(cn4C)C[C@H]2N(C)C1` , tested on 5-hydroxytryptamine receptor 2B (Homo sapiens, UniProt P41595)? 7.66
